allergenic potency (Prel) at 50% inhibition (relative to native Phl p 5b) by entry:
- Tgt: IgE antibodies of the individual allergic patient serum II/12
- Method Notes: EAST inhibition, individual serum II/12
// return just the number, without any unit appended

// solved cases for allergenic potency (Prel) at 50% inhibition (relative to native Phl p 5b) follow
>>> numeric_result("recombinant Phl p 5b (wild type) (protein) ADAGYAPATPAAAGAAAGKATTEEQKLIEDINVGFKAAVAAAASVPAADKFKTFEAAFTSSSKAAAAKAPGLVPKLDAAYSVAYKAAVGATPEAKFDSFVASLTEALRVIAGALEVHAVKPVTEEPGMAKIPAGELQIIDKIDAAFKVAATAAATAPADDKFTVFEAAFNKAIKESTGGAYDTYKCIPSLEAAVKQAYAATVAAAPQVKYAVFEAALTKAITAMSEVQKVSQPATGAATVAAGAATTAAGAASGAATVAAGGYKV")
0.093
>>> numeric_result("natural Phl p 5b, purified by affinity chromatography (protein) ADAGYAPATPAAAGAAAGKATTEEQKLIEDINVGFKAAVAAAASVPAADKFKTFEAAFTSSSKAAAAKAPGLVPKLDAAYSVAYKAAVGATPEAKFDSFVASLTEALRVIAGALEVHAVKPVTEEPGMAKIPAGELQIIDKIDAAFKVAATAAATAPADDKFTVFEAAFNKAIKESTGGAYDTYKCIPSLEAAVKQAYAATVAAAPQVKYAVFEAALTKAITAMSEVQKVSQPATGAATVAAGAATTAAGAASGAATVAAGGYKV")
1
>>> numeric_result("rPhl p 5b deletion mutant DM1 (deletion K50-P132, D49L) (protein) ADAGYAPATPAAAGAAAGKATTEEQKLIEDINVGFKAAVAAAASVPAALAGELQIIDKIDAAFKVAATAAATAPADDKFTVFEAAFNKAIKESTGGAYDTYKCIPSLEAAVKQAYAATVAAAPQVKYAVFEAALTKAITAMSEVQKVSQPATGAATVAAGAATTAAGAASGAATVAAGGYKV")
"1e-10"
>>> numeric_result("rPhl p 5b deletion mutant DM3 (deletion A154-T177, A220T) (protein) ADAGYAPATPAAAGAAAGKATTEEQKLIEDINVGFKAAVAAAASVPAADKFKTFEAAFTSSSKAAAAKAPGLVPKLDAAYSVAYKAAVGATPEAKFDSFVASLTEALRVIAGALEVHAVKPVTEEPGMAKIPAGELQIIDKIDAAFKVAATAAGGAYDTYKCIPSLEAAVKQAYAATVAAAPQVKYAVFEAALTKTITAMSEVQKVSQPATGAATVAAGAATTAAGAASGAATVAAGGYKV")
"5.7e-05"
>>> numeric_result("rPhl p 5b point mutant PM1 (N32D, D49L, K50A) (protein) ADAGYAPATPAAAGAAAGKATTEEQKLIEDIDVGFKAAVAAAASVPAALAFKTFEAAFTSSSKAAAAKAPGLVPKLDAAYSVAYKAAVGATPEAKFDSFVASLTEALRVIAGALEVHAVKPVTEEPGMAKIPAGELQIIDKIDAAFKVAATAAATAPADDKFTVFEAAFNKAIKESTGGAYDTYKCIPSLEAAVKQAYAATVAAAPQVKYAVFEAALTKAITAMSEVQKVSQPATGAATVAAGAATTAAGAASGAATVAAGGYKV")
0.082

Here is the next item to consider.
allergenic potency (Prel) at 50% inhibition (relative to native Phl p 5b) recorded for this binder, rPhl p 5b point mutant PM3 (A13C) (protein) ADAGYAPATPAACGAAAGKATTEEQKLIEDINVGFKAAVAAAASVPAADKFKTFEAAFTSSSKAAAAKAPGLVPKLDAAYSVAYKAAVGATPEAKFDSFVASLTEALRVIAGALEVHAVKPVTEEPGMAKIPAGELQIIDKIDAAFKVAATAAATAPADDKFTVFEAAFNKAIKESTGGAYDTYKCIPSLEAAVKQAYAATVAAAPQVKYAVFEAALTKAITAMSEVQKVSQPATGAATVAAGAATTAAGAASGAATVAAGGYKV , is 0.075
